biological target: T1, CD40hfc (R&Dsystems, USA) (UniProt P25942 21-193); assay: SPR (Biacore 3000), CD40hfc amine-coupled on chip, antibody as analyte, 37 C, pH 7.3
T1 construct: Bought reagent; also called immobilized CD40 receptor; target; not shown: Fc part ('hfc') of the bought fusion
T1 sequence (P25942 21-193 limits assumed): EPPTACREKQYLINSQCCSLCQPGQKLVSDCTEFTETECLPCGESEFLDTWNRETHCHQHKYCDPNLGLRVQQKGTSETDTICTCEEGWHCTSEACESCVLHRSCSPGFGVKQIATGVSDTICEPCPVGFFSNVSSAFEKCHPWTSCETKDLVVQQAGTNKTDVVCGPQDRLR
Give kon for every item shown.
State just the number; it will be interpreted in M⁻¹ s⁻¹.

Request: Dear colleague, please send me the reported kon for Antibody B44 (antibody, V domains shown, Parent agonistic anti-CD40 antibody from the n-CoDeR library; Run alongside the IgG clones as 'B44 antibody' and detected with anti-human Ig on RAMOS cells; also called B44 antibody; original anti-CD40 antibody) VH: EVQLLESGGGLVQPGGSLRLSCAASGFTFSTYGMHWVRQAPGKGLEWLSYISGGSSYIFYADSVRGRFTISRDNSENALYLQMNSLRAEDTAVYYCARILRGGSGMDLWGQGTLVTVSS VL: QSVLTQPPSASGTPGQRVTISCTGSSSNIGAGYDVYWYQQLPGTAPKLLIYGNINRPSGVPDRFSGSKSGTSASLAISGLRSEDEADYYCAAWDDSLSGLVFGGGTKLTVLG when you can.
Result: 2.7e+06

Request: Return value of kon for input Antibody clone A5 (antibody, human IgG1, lambda, V domains shown) VH: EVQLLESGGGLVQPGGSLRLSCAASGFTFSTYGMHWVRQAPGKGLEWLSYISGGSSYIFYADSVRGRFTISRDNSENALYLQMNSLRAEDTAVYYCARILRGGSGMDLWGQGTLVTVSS VL: QSVLTQPPSASGTPGQRVTISCTGSSSNIGAGYHVYWYQQLPGTAPKLLIYGSINRPSGVPDRFSGSKSGTSGSLAISGLRSEDEADYYCAAWDSSSSGLVFGGGTKLTVLG , no commentary.
Result: 8.5e+06
